Provenance of the data: ChEMBL document CHEMBL3046188

Please provide measured mortality at 20 ppm for the entries that follow.
# System: Myzus persicae
# experiment: Insecticidal activity against Myzus persicae (green peach aphid) reared on compound pre-treated […] plants assessed as insect mortality rate at 20 ppm measured 7 days post compound treatment
# Assay type: functional
Answers are plain numbers, in %.

- compound: "CC1(C)CN/C(=N\\[N+](=O)[O-])N(Cc2ccc(Cl)nc2)C1"
  experimentalTarget: "Myzus persicae"
  metric: "mortality at 20 ppm"
  assayValue: 60
- compound: "COC1(OC)CN/C(=C\\[N+](=O)[O-])N(CC2CCOC2)C1 (stereo unspecified)"
  experimentalTarget: "Myzus persicae"
  metric: "mortality at 20 ppm"
  assayValue: 60
- compound: "COC1(OC)CN/C(=C\\[N+](=O)[O-])N(Cc2ccc(Cl)nc2)C1"
  experimentalTarget: "Myzus persicae"
  metric: "mortality at 20 ppm"
  assayValue: 90
- compound: "COC1CN/C(=N\\[N+](=O)[O-])N(Cc2ccc(Cl)nc2)C1 (stereo unspecified)"
  experimentalTarget: "Myzus persicae"
  metric: "mortality at 20 ppm"
  assayValue: 40
- compound: "O=[N+]([O-])/N=C1\\NCCCN1Cc1ccc(Cl)nc1"
  experimentalTarget: "Myzus persicae"
  metric: "mortality at 20 ppm"
  assayValue: 100

Please look at the following compound next.
Qu. Quick check: mortality at 20 ppm of `COC1(OC)CN/C(=N\[N+](=O)[O-])N(Cc2cnc(Cl)s2)C1` ?
Ans. 100

---

# Test system: Myzus persicae
# experiment: Insecticidal activity against Myzus persicae (green peach aphid) reared on compound pre-treated […] plants assessed as insect mortality rate at 20 ppm measured 7 days post compound treatment
# Type: functional
metric: mortality at 20 ppm
Reply with a number, then the unit it belongs to.

Solved entries:
- querySmiles: "COC1(OC)CN(C)/C(=N\\[N+](=O)[O-])N(Cc2cnc(Cl)s2)C1"
  mortality at 20 ppm: "100%"
- querySmiles: "C/N=C(\\NCc1ccc(Cl)nc1)N[N+](=O)[O-]"
  mortality at 20 ppm: "100%"
- querySmiles: "COC1(OC)CN/C(=N\\[N+](=O)[O-])N(Cc2ccc(Cl)nc2)C1"
  mortality at 20 ppm: "100%"

Provide mortality at 20 ppm for all items below, preserving their order.
1. COC1(OC)CN(C)/C(=N\[N+](=O)[O-])N(Cc2ccc(Cl)nc2)C1
2. COC1(OC)CN/C(=N\C#N)N(Cc2ccc(Cl)nc2)C1

Ans.
1. 90%
2. 100%

---

# Test system: Myzus persicae
# experiment: Insecticidal activity against Myzus persicae (green peach aphid) reared on compound pre-treated […] plants assessed as insect mortality rate at 4 ppm measured 7 days post compound treatment
# Format: functional
Task for the reader: assign each of the following compounds its reported mortality at 4 ppm.
Answers are plain numbers, in %.

See these solved cases before continuing.
- compound: "O=[N+]([O-])/N=C1\\NCCCN1Cc1ccc(Cl)nc1"
  mortality at 4 ppm / %: 100
- compound: "CC1(C)CN/C(=N\\[N+](=O)[O-])N(Cc2ccc(Cl)nc2)C1"
  mortality at 4 ppm / %: 0
- compound: "COC1(OC)CN/C(=C\\[N+](=O)[O-])N(Cc2ccc(Cl)nc2)C1"
  mortality at 4 ppm / %: 60
- compound: "COC1(OC)CN/C(=C\\[N+](=O)[O-])N(CC2CCOC2)C1 (stereo unspecified)"
  mortality at 4 ppm / %: 0
- compound: "COC1CN/C(=N\\[N+](=O)[O-])N(Cc2ccc(Cl)nc2)C1 (stereo unspecified)"
  mortality at 4 ppm / %: 0
- compound: "COC1(OC)CN/C(=N\\[N+](=O)[O-])N(Cc2ccc(Cl)nc2)C1"
  mortality at 4 ppm / %: 100
- compound: "COC1(OC)CN/C(=N\\[N+](=O)[O-])N(Cc2cnc(Cl)s2)C1"
  mortality at 4 ppm / %: 100
- compound: "COC1(OC)CN(C)/C(=N\\[N+](=O)[O-])N(Cc2cnc(Cl)s2)C1"
  mortality at 4 ppm / %: 100

Could you tell me mortality at 4 ppm for each of these compounds? They are listed below.
1. COC1(OC)CN/C(=N\C#N)N(Cc2ccc(Cl)nc2)C1
2. COC1(OC)CN(C)/C(=N\[N+](=O)[O-])N(Cc2ccc(Cl)nc2)C1
3. C/N=C(\NCc1ccc(Cl)nc1)N[N+](=O)[O-]

Ans.
[60, 90, 100]
